# Tested on: ECU
# EXPERIMENTAL_PROTOCOL: qHTS profiling for inhibitors of Plasmodium falciparum proliferation (AID 504749); note: nearly all actives have a fitted effect of over 60% in size
# DETAILS: P. falciparum in erythrocytes, SYBR Green DNA, 72 h; series mostly up to 28.7 µM
Results filed as inconclusive are left out. Activity calls are given as the source filed them. Calls come from the whole dose curve; as a rule, active = well fitted inhibition curve with a large enough effect; inconclusive = small, poorly fitted or top-dose-only effect; inactive = flat fitted curve, though single readings scatter.
Please answer using one outcome listed in label 1 for active, label 0 for inactive

Hi, do you know how COC1CC2CCC(C)[C@](O)(O2)C(=O)C(=O)N2CCCCC2C(=O)OC(C(C)CC2CCC(O)C(OC)C2)CC(=O)C(C)/C=C(/C)C(O)C(OC)C(=O)C(C)CC(C)C=CC=C/C=C\1C (stereo partly drawn) came out in this test?
label 1

Quick one: NCCCCC(N)C(=O)O (stereo not drawn)
label 0

And CCCC(=O)O[C@]1(C(=O)COC(C)=O)CC[C@H]2C3C[C@H](F)C4=CC(=O)C=CC4(C)[C@@]3(F)[C@@H](O)CC21C (stereo partly drawn) ?
label 0

Similarly, O=c1[nH]c(=O)n(C2C[C@H](O)[C@@H](CO)O2)cc1C(F)(F)F (stereo partly drawn) ?
label 0

Then what about the compound CNC1C(O)C(OC2C(NC(=O)C(O)CN)CC(N)C(OC3OC(CN)C(O)C(O)C3O)C2O)OCC1(C)O (stereo not drawn) ?
label 0

Same again, this time with CCCCC(=O)OC1CCC2C3CCc4cc(O)ccc4C3CC[C@]12C (stereo partly drawn)
label 0

Ok, now C[C@]12CC[C@@H]3c4ccc(O)cc4C[C@@H](CCCCCCCCCS(=O)CCCC(F)(F)C(F)(F)F)C3[C@@H]1CC[C@@H]2O (stereo partly drawn)
label 1

Now consider C=C1CC[C@H](O)C/C1=C/C=C1\CCC[C@]2(C)[C@@H]([C@H](C)CCCC(C)(C)O)CC[C@@H]12 .
label 1

Ok, now CCC(=O)O[C@]1(C(=O)CCl)[C@@H](C)CC2C3C[C@H](F)C4=CC(=O)C=CC4(C)[C@@]3(F)C(O)CC21C (stereo partly drawn)
label 1

Then what about the compound CC[C@@H]1/C=C(\C)C[C@H](C)C[C@H](OC)[C@H]2O[C@@](O)(C(=O)C(=O)N3CCCC[C@H]3C(=O)O[C@H](/C(C)=C/[C@@H]3CC[C@H](Cl)[C@H](OC)C3)[C@H](C)[C@@H](O)CC1=O)[C@H](C)C[C@@H]2OC ?
label 0

Moving on to OC[C@@H](O)C(O[C@@H]1O[C@@H](CO)[C@H](O)[C@H](O)[C@H]1O)[C@H](O)[C@@H](O)CO (stereo partly drawn)
label 0

Ok, now CC(=O)NC1[C@H](O)C[C@@](O)(C(=O)O)O[C@H]1[C@H](O)[C@H](O)CO (stereo partly drawn)
label 0

// repeat for O=C1[C@@H]2C[C@@H]3C[C@H]1C[C@@](O)(C3)C2 and report
label 0

These measurements were taken from PubChem BioAssay (NCATS).
